Provide the reported Protection of each item.
- System: Rattus norvegicus
- protocol.notes: Percent protection against thioacetamide-induced toxicity in rats using acid phosphatase(ACP) at peroral dose of 6 mg/kg for 7 days of compound
- Format: functional
- cond: route oral
Answers are plain numbers, in %.

As a guide, the following entries are already answered.
# compound.structure.string, target.under.test, observation.type, observed.result
data = [
    ("CSc1cc(-c2ccc(Br)cc2)oc(=O)c1Cl", "Rattus norvegicus", "Protection", 30),
    ("CSc1cc(-c2ccc(Cl)cc2)oc(=O)c1", "Rattus norvegicus", "Protection", 24),
    ("CSc1cc(-c2ccncc2)oc(=O)c1C#N", "Rattus norvegicus", "Protection", 0),
    ("CSc1cc(-c2ccc(F)cc2)oc(=O)c1Br", "Rattus norvegicus", "Protection", 49),
    ("CSc1cc(-c2ccc(Cl)cc2)oc(=O)c1Cl", "Rattus norvegicus", "Protection", 38),
    ("CCOC(=O)c1c(SC)cc(-c2ccc(Cl)cc2)oc1=O", "Rattus norvegicus", "Protection", 0),
]

Okay, next one:
[ask] Requested field: Protection. Item: `COc1cc([C@H]2Oc3cc([C@H]4Oc5cc(O)cc(O)c5C(=O)[C@@H]4O)ccc3O[C@@H]2CO)ccc1O`
[reply] 43.25

====

- Tested on: Rattus norvegicus
- protocol.notes: Percent protection against thioacetamide-induced toxicity in rats using glutamate oxaloacetate transaminase (GOT) when peroral administration of compound 6 mg/kg for 7 days
- Assay type: functional
- cond: route oral
Provide the reported Protection of each item.
Give bare numbers, in %.

As a guide, the following entries are already answered.
# compound.structure.string, unit.spec, observed.result
rows = [
    ("CSc1cc(-c2ccc(Cl)cc2)oc(=S)c1Cl", "%", 29),
    ("CSc1cc(-c2ccco2)oc(=O)c1C#N", "%", 71),
    ("CSc1cc(-c2ccc(F)cc2)oc(=O)c1Br", "%", 0),
    ("CSc1cc(-c2cccs2)oc(=O)c1Br", "%", 50),
    ("CSc1cc(-c2ccc(F)cc2)oc(=O)c1", "%", 59),
    ("CSc1cc(-c2ccc(Cl)cc2)oc(=S)c1Br", "%", 25),
]

Would you mind listing Protection for each of the following compounds?
1. CCOC(=O)c1c(SC)c(C#N)c(-c2ccc(Br)cc2)oc1=O
2. CSc1cc(-c2ccc(Br)cc2)oc(=O)c1Br

[reply]
[0, 47]

====

- Tested on: Rattus norvegicus
- protocol.notes: Percent protection against thioacetamide-induced toxicity in rats using glutamate oxaloacetate transaminase (GOT) when peroral administration of compound 6 mg/kg for 7 days
- Format: functional
- cond: route oral
Provide the reported Protection of each item.
One number for each entry, in %.

As a guide, the following entries are already answered.
# molecule, unit.spec, observed.result
records = [
    ("CCOC(=O)c1c(SC)c(C#N)c(-c2ccc(Cl)cc2)oc1=O", "%", 14),
    ("CSc1cc(-c2ccncc2)oc(=O)c1C#N", "%", 0),
    ("COc1cc([C@H]2Oc3cc([C@H]4Oc5cc(O)cc(O)c5C(=O)[C@@H]4O)ccc3O[C@@H]2CO)ccc1O [SILYBIN A]", "%", 50.14),
    ("CSc1cc(-c2ccc(Cl)cc2)oc(=O)c1C#N", "%", 68),
    ("CSc1cc(-c2cccs2)oc(=O)c1C#N", "%", 37),
    ("CSc1cc(-c2ccc(Cl)cc2)oc(=O)c1", "%", 46),
    ("CSc1cc(-c2ccc(F)cc2)oc(=O)c1C#N", "%", 20),
    ("CSc1cc(-c2ccncc2)oc(=O)c1Br", "%", 48),
]

Would you mind listing Protection for each of the following molecules?
1. CSc1cc(-c2ccc(Cl)cc2)oc(=O)c1Br
2. CSc1cc(-c2ccc(Cl)cc2)oc(=O)c1C(N)=O

[reply]
[70, 16]
